# Test system: Aeromonas sp.
# assay-summary: Antibacterial activity against Aeromonas sp. isolate A72 by Etest
# Assay type: functional
readout-name: MIC

// solved cases for MIC follow
CO/N=C(\C(=O)N[C@@H]1C(=O)N2C(C(=O)O)=C(COC(C)=O)CS[C@H]12)c1csc(N)n1: > 32 µg/mL
CC(=O)OCC1=C(C(=O)O)N2C(=O)[C@@H](NC(=O)Cc3cccs3)[C@H]2SC1: > 64 µg/mL
CC1(C)S[C@@H]2[C@H](NC(=O)[C@H](N)c3ccc(O)cc3)C(=O)N2[C@H]1C(=O)O: > 256 µg/mL

# input compound: C[C@@H](O)[C@H]1C(=O)N2C(C(=O)O)=C(SCCNC=N)C[C@H]12 [IMIPENEM ANHYDROUS] ; wanted: its MIC
0.25 µg/mL

====

# Test system: Aeromonas sp.
# assay-summary: Antibacterial activity against Aeromonas sp. isolate A72 by Etest
# Format: functional
readout-name: MIC (µg/mL)
Supply the numeric figure in µg/mL, leaving out any unit text.

CO/N=C(\C(=O)N[C@@H]1C(=O)N2C(C(=O)[O-])=C(C[N+]3(C)CCCC3)CS[C@H]12)c1csc(N)n1 [CEFEPIME]: 4

Which value of MIC has been reported for `CO[C@@]1(NC(=O)Cc2cccs2)C(=O)N2C(C(=O)O)=C(COC(N)=O)CS[C@@H]21` in the records?
2

This collection of values is drawn from ChEMBL document CHEMBL1275506.
